From: paper PMC10569036

# procedure.summary: shake flask on a mixture of 185; loss from the water phase only; LC-QTOF peak areas
# test.settings: room
Measured log partition oleylalcohol / HPLC water, unbuffered, traces of methanol / DMSO of individual entries
The reply should contain only the number, in log10.

compound: CCCOC(=O)c1ccc(C(=O)OCCC)nc1
numeric.readout: 2.412

compound: CCCCOC(=O)C(C)Oc1ccc(Oc2ccc(C(F)(F)F)cn2)cc1 (stereo not shown)
numeric.readout: 1.771

compound: NC(=O)Nc1ccc(Cl)cc1
numeric.readout: 1.051

Input line: Given Oc1c(Cl)cc(Cl)c(Cl)c1Cc1c(O)c(Cl)cc(Cl)c1Cl , state its recorded log partition oleylalcohol / HPLC water, unbuffered, traces of methanol / DMSO.
Output line: 2.088

Input line: Fill in the blank: the reported log partition oleylalcohol / HPLC water, unbuffered, traces of methanol / DMSO of c1coc(-c2nc3ccccc3[nH]2)c1 is ____.
Output line: 1.545

Input line: Suppose we examine the compound O=C(Nc1ccccc1-c1ccc(Cl)cc1)c1cccnc1Cl ; what log partition oleylalcohol / HPLC water, unbuffered, traces of methanol / DMSO value has been reported?
Output line: 1.78
